target-under-test: human DGKα (Homo sapiens)
Construct: TVMV protease cleavage site (C); Hexa-His (C); made in house; host or cells: Sf9 insect cells (baculovirus, Bac-to-Bac)
assay: DGKα LIPGLO assay (extruded liposome substrate), in vitro DGK inhibition
Assay type: biochemical
test-conditions: liposome (LIPGLO) assay; read-out: DGKa LIPGLO IC50
Structures can show the parent of a compound that is named as a salt.
Under this convention, 1.0 denotes IC50 strictly below 30 µM and 0.0 denotes IC50 at or above 30 µM.

{"columns": ["compound", "category"],
 "data": [
  ["CC(c1nc(C2CC2)no1)N1C[C@H](C)N(c2c(C#N)c(=O)n(C)c3ccc(C#N)nc23)C[C@H]1C (single isomer, unassigned) [Example 1306]", 1.0],
  ["CC(c1ccc(OC(F)(F)F)cc1)N1C[C@H](C)N(c2cc(=O)n(C)c3ccc(C#N)nc23)C[C@H]1CN1CCN(C)CC1 (stereo partly drawn) [Example 1417]", 1.0],
  ["CC(c1cccc(C(F)F)n1)N1C[C@H](C)N(c2cc(=O)n(C)c3ccc(C#N)nc23)C[C@H]1C (stereo partly drawn) [Example 1222]", 1.0],
  ["CC(C)C(C)(F)C1CN(c2cc(=O)n(C)c3ccc(C#N)nc23)CCN1C(c1ccc(F)cc1)c1ccc(F)cc1 (single isomer, unassigned) [Example 91, TFA]", 0.0],
  ["C[C@@H]1CN(c2cc(=O)n(C)c3ccc(C#N)nc23)[C@@H](C)CN1C(c1ccc(F)cc1)c1cncnc1 (single isomer, unassigned) [Example 393]", 1.0],
  ["COC(=O)C1CN(c2cc(=O)n(C)c3ccc(C#N)nc23)CCN1C(c1ccc(F)cc1)c1ccc(F)cc1 (single isomer, unassigned) [Example 40]", 1.0]
]}

====

Measured pIC50 by item
target-under-test: human DGKα (Homo sapiens, UniProt P23743)
Construct: TVMV protease cleavage site (C); Hexa-His (C); made in house; host or cells: Sf9 insect cells (baculovirus, Bac-to-Bac)
Sequence (P23743 with tags, fused parts or gaps): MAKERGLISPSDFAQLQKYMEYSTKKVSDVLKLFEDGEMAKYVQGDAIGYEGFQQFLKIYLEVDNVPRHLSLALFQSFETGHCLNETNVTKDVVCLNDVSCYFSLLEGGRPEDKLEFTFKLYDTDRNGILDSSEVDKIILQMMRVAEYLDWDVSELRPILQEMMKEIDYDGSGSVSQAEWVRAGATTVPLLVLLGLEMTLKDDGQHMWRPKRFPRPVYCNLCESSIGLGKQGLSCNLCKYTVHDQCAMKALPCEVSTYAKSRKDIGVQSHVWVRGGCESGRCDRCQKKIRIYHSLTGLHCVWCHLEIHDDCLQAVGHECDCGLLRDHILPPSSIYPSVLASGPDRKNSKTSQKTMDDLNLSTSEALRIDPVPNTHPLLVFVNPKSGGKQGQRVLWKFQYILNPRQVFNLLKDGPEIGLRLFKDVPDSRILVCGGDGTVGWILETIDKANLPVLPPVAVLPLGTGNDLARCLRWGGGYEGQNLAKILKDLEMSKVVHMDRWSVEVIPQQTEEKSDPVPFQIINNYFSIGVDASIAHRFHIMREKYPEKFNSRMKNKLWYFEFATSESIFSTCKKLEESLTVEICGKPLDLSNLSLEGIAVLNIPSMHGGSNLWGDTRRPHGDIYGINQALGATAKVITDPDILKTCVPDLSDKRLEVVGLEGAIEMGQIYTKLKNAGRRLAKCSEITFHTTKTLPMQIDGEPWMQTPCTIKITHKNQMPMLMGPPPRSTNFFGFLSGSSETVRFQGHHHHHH
assay: DGKα LIPGLO assay (extruded liposome substrate), in vitro DGK inhibition
Assay type: biochemical
test-conditions: liposome (LIPGLO) assay; read-out: DGKa LIPGLO IC50
pIC50: −log10 of the molar value.

{"columns": ["compound", "pIC50"],
 "data": [
  ["C[C@@H]1CN(c2cc(=O)n(C)c3ccc(C#N)nc23)[C@@H](C)CN1C(c1ccc(Cl)cc1)c1nc(C2CC2)no1 (single isomer, unassigned) [Example 1285]", 7.59],
  ["C[C@@H]1CN(c2cc(=O)n(C)c3ccc(C#N)nc23)[C@@H](C)CN1C(c1ccc(O)cc1)C(F)(F)F (stereo partly drawn)", 5.77],
  ["CC[C@@H]1CN(c2c(F)c(=O)n(C)c3ccc(C#N)nc23)CCN1C(c1ccc(F)cc1)c1ccc(F)cc1", 6.09]
]}

====

Collected IC50 values appear next to each entry.
target-under-test: human DGKζ (Homo sapiens, UniProt Q13574)
Construct: TVMV protease cleavage site (C); Hexa-His (C); made in house; host or cells: Sf9 insect cells (baculovirus, Bac-to-Bac)
Sequence (Q13574 with tags, fused parts or gaps isoform Q13574-4): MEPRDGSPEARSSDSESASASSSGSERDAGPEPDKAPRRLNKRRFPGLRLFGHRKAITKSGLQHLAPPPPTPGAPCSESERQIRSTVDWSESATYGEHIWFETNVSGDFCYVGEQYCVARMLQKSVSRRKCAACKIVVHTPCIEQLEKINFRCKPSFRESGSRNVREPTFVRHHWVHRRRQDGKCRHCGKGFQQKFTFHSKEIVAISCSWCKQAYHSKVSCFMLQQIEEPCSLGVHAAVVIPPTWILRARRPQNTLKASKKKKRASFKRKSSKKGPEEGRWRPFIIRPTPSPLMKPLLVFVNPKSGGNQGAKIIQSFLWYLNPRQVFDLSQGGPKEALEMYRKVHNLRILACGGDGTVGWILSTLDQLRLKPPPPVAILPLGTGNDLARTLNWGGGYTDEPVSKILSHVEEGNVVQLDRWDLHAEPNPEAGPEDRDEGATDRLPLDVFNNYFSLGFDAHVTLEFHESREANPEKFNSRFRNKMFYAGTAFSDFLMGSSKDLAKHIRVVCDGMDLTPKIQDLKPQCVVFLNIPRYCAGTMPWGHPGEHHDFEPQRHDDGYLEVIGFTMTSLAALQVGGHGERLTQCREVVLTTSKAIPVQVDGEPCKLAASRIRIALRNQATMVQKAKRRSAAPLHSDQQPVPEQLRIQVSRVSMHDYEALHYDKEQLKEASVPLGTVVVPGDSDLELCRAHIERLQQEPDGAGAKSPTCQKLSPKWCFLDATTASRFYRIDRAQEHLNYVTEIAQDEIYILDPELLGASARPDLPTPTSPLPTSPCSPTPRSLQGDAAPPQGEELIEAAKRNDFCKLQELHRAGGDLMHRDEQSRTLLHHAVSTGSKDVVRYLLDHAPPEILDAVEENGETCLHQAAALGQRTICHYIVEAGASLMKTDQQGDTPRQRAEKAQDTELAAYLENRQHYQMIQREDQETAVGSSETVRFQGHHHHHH
assay: DGKζ LIPGLO assay (extruded liposome substrate), in vitro DGK inhibition
Format: biochemical
test-conditions: liposome (LIPGLO) assay; read-out: DGKz LIPGLO IC50

{"columns": ["compound", "IC50, nM"],
 "data": [
  ["CC[C@@H]1CN(c2cc(=O)n(C)c3ccc(C#N)nc23)[C@@H](C)CN1Cc1ccc(F)cc1", 89],
  ["CC[C@H]1CN(C(c2cccc(F)c2)c2ccc(F)cn2)[C@H](CC)CN1c1cc(=O)n(C)c2ccc(C#N)nc12 (single isomer, unassigned) [Example 1041]", 43],
  ["C[C@@H]1CN(c2cc(=O)n(C)c3ccc(C#N)nc23)[C@@H](C)CN1C(c1ccccn1)c1ccc(F)cc1F (single isomer, unassigned) [Example 682]", 1500]
]}
